- targetEntity: Choline kinase alpha (Homo sapiens, UniProt P35790)
- Sequence (P35790 whole entry, looked up): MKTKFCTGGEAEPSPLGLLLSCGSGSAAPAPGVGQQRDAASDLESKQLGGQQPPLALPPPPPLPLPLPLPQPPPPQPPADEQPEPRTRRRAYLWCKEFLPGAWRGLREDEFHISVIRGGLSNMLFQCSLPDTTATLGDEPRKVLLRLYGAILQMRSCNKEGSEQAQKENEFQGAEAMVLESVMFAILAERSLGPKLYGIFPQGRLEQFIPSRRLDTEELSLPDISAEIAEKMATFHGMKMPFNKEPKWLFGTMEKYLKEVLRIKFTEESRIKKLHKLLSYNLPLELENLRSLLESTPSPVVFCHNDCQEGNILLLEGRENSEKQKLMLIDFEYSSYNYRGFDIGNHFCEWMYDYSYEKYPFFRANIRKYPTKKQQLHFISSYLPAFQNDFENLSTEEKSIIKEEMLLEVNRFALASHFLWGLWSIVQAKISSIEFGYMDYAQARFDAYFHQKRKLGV
- measurementDescription: Inhibition of human CKalpha1 assessed as reduction in 14C incorporation from [methyl-14C]choline to […] at 30 uM using [methyl-14C]choline as substrate preincubated for 5 mins in presence of ATP and MgCl2 followed by substrate addition and measured after 10 mins by liquid scintillation counting method relative to control
- measurementParameters: time 15.0 min
The entries below come with measured inhibition values attached.
Numeric answer only, unit % assumed.

Answered cases to consult:
compound	recordedResult
FC(F)(F)c1ccc(C[N+]23CCC(CC2)CC3)cc1	24.7
c1ccc(-c2ccc(C[N+]34CCC(CC3)CC4)cc2)cc1	30.2
OC1C[N+]2(Cc3ccc(-c4ccccc4)cc3)CCC1CC2 (configuration not stated)	53

Tested system Choline kinase alpha (Homo sapiens, UniProt P35790); inhibition recorded for "FC(F)(F)c1ccc(C[n+]2ccc(N3CCCC3)c3ccc(Cl)cc32)cc1" was 24.9

I looked up "CN(c1ccccc1)c1cc[n+](Cc2ccc(-c3ccccc3)cc2)c2cc(Cl)ccc12" and its inhibition for Choline kinase alpha (Homo sapiens, UniProt P35790) was 76

GET /values?item= "FC(F)(F)c1ccc(C[n+]2ccc(N3CCCCCC3)c3ccc(Cl)cc32)cc1" &system= Choline kinase alpha (Homo sapiens, UniProt P35790) returns inhibition: 52.7

Let me check: "Clc1ccc2c(N3CCCCCC3)cc[n+](Cc3ccc(-c4ccccc4)cc3)c2c1.[Br-]" , system Choline kinase alpha (Homo sapiens, UniProt P35790), measured inhibition is 94.4

Entry "CN(c1ccc(Cl)cc1)c1cc[n+](Cc2ccc(C(F)(F)F)cc2)c2cc(Cl)ccc12" : inhibition on Choline kinase alpha (Homo sapiens, UniProt P35790) = 14.5

* * *

- System: RS4-11
- measurementDescription: Antiproliferative activity against human RS4-11 cells assessed as inhibition of cell proliferation incubated for 72 hrs by MTT assay
- Type: functional
Classes by GI50: lo: < 1000 nM; med: ≥ 1000 nM and < 3000 nM; hi: ≥ 3000 nM

Recorded results for 3 molecules are shown here.
molecule	discreteLabel
CN(c1ccc(Cl)cc1)c1cc[n+](Cc2ccc(C(F)(F)F)cc2)c2cc(Cl)ccc12	med
FC(F)(F)c1ccc(C[N+]23CCC(CC2)CC3)cc1	hi
c1ccc(C[n+]2ccc(N3CCCC3)cc2)cc1	hi

## Input Where would "Clc1ccc2c(N3CCCCCC3)cc[n+](Cc3ccccc3)c2c1" land among the classes by reported GI50?
## Output lo

## Input For the record "c1ccc(-c2ccc(C[n+]3ccc(N4CCCCCC4)c4ccccc43)cc2)cc1" , report the class its GI50 corresponds to.
## Output hi

## Input Which band does OC1C[N+]2(Cc3ccc(-c4ccccc4)cc3)CCC1CC2 (configuration not stated) fall in?
## Output med

## Input Assign a category based on measured GI50 for "FC(F)(F)c1ccc(C[n+]2ccc(N3CCCCCC3)c3ccc(Cl)cc32)cc1" and give only the class name.
## Output hi

## Input Which band does "Clc1ccc2c(N3CCCC3)cc[n+](Cc3ccccc3)c2c1" fall in?
## Output med

* * *

- measurementDescription: Inhibition of [methyl-14C]choline uptake in human HT-29 cells at 30 uM incubated for 10 mins followed by removal of medium containing compound and subsequent addition of [methyl-14C]choline measured after 5 mins relative to control
- Format: functional
- measurementParameters: HT-29, 10 min
Tick MET if inhibition at 30 µM is 90% or greater. Tick NOT MET if inhibition at 30 µM is less than 90%.

Illustrative cases are given below, each with its answer.
compound	discreteLabel
CN(C)c1cc[n+](Cc2ccc(C(F)(F)F)cc2)cc1	NOT MET
CN(c1ccccc1)c1cc[n+](Cc2ccc(-c3ccccc3)cc2)c2cc(Cl)ccc12	MET
Clc1ccc2c(N3CCCCCC3)cc[n+](Cc3ccc(-c4ccccc4)cc3)c2c1.[Br-]	MET
CN(c1ccc(Cl)cc1)c1cc[n+](Cc2ccc(-c3ccccc3)cc2)cc1	MET

## Input Check if inhibition at 30 µM >= 90% (inclusive). Item: OC1C[N+]2(Cc3ccc(C(F)(F)F)cc3)CCC1CC2 (configuration not stated)
## Output NOT MET

## Input Could you verify whether the entry "c1ccc(-c2ccc(C[n+]3ccc(N4CCCC4)cc3)cc2)cc1" shows inhibition at 30 µM of no less than 90%?
## Output NOT MET

## Input Does "FC(F)(F)c1ccc(C[N+]23CCC(CC2)CC3)cc1" have a reported inhibition at 30 µM of at least 90%?
## Output NOT MET

* * *

Catalogue of inhibition values
- targetEntity: Choline kinase alpha (Homo sapiens)
- measurementDescription: Inhibition of human CKalpha1 assessed as reduction in 14C incorporation from [methyl-14C]choline to […] at 10 uM using [methyl-14C]choline as substrate preincubated for 5 mins in presence of ATP and MgCl2 followed by substrate addition and measured after 10 mins by liquid scintillation counting method relative to control
- measurementParameters: time 15.0 min
Please respond with the number in % and leave the unit unwritten.

// molecule "Clc1ccc2c(N3CCCCCC3)cc[n+](Cc3ccccc3)c2c1" , assay Choline kinase alpha (Homo sapiens), inhibition value: 35.8

Simply: "CN(c1ccccc1)c1cc[n+](Cc2ccc(-c3ccccc3)cc2)c2cc(Cl)ccc12" , Choline kinase alpha (Homo sapiens), inhibition = 38.6

Form field inhibition for item "c1ccc(C[n+]2ccc(N3CCCC3)cc2)cc1" on Choline kinase alpha (Homo sapiens): 11.1

* * *

- Tested on: HT-29
- measurementDescription: Antiproliferative activity against human HT-29 cells assessed as inhibition of cell proliferation incubated for 72 hrs by MTT assay
- Format: functional
Just a reminder that ties go to criterion not met: only GI50 strictly below 8 µM counts as criterion met.

Field: example entries. Status: answers known.
compound	discreteLabel
OC1C[N+]2(Cc3ccc(-c4ccccc4)cc3)CCC1CC2 (configuration not stated)	criterion not met
Clc1ccc2c(N3CCCCCC3)cc[n+](Cc3ccccc3)c2c1	criterion met
FC(F)(F)c1ccc(C[n+]2ccc(N3CCCC3)c3ccc(Cl)cc32)cc1	criterion not met
CN(c1ccc(Cl)cc1)c1cc[n+](Cc2ccc(C(F)(F)F)cc2)c2cc(Cl)ccc12	criterion met
c1ccc(-c2ccc(C[n+]3ccc(N4CCCC4)cc3)cc2)cc1	criterion met
OC1C[N+]2(Cc3ccc(C(F)(F)F)cc3)CCC1CC2 (configuration not stated)	criterion not met
CN(c1ccccc1)c1cc[n+](Cc2ccccc2)c2cc(Cl)ccc12	criterion met
Clc1ccc2c(N3CCCCCC3)cc[n+](Cc3ccc(-c4ccccc4)cc3)c2c1.[Br-]	criterion met
CN(c1ccccc1)c1cc[n+](Cc2ccc(-c3ccccc3)cc2)c2cc(Cl)ccc12	criterion met
c1ccc(C[n+]2ccc(N3CCCC3)cc2)cc1	criterion not met

Proceed to the following item.
## Input Please state whether GI50 is below 8 µM for "CN(c1ccccc1)c1cc[n+](Cc2ccc(C(F)(F)F)cc2)c2cc(Cl)ccc12"
## Output criterion met

* * *

Below, each entry is listed alongside its reported GI50.
- Tested on: CCRF-CEM
- measurementDescription: Antiproliferative activity against human CCRF-CEM cells assessed as inhibition of cell proliferation incubated for 72 hrs by MTT assay
- Type: functional
The reply should contain only the number, in µM.

compound	targetEntity	endpointName	recordedResult
FC(F)(F)c1ccc(C[n+]2ccc(N3CCCC3)c3ccc(Cl)cc32)cc1	CCRF-CEM	GI50	3
OC1C[N+]2(Cc3ccc(-c4ccccc4)cc3)CCC1CC2 (stereo unspecified)	CCRF-CEM	GI50	16.9
c1ccc(-c2ccc(C[n+]3ccc(N4CCCCCC4)c4ccccc43)cc2)cc1	CCRF-CEM	GI50	8.6

Value (GI50, CCRF-CEM) for record "CN(c1ccc(Cl)cc1)c1cc[n+](Cc2ccc(C(F)(F)F)cc2)c2cc(Cl)ccc12" = 2

Short answer on CCRF-CEM for "c1ccc(-c2ccc(C[n+]3ccc(N4CCCC4)cc3)cc2)cc1" , GI50: 0.18

# value of GI50, CCRF-CEM, item "CN(C)c1cc[n+](Cc2ccccc2)cc1" = 54.3

Form field GI50 for item "Clc1ccc2c(N3CCCCCC3)cc[n+](Cc3ccccc3)c2c1" on CCRF-CEM: 0.56

Sample "FC(F)(F)c1ccc(C[n+]2ccc(N3CCCC3)cc2)cc1" , system: CCRF-CEM. Its GI50 is 12

Kindly note: CCRF-CEM, "CN(C)c1cc[n+](Cc2ccc(-c3ccccc3)cc2)cc1" , GI50 value reported: 0.43

Item: "CN(c1ccccc1)c1cc[n+](Cc2ccc(-c3ccccc3)cc2)c2cc(Cl)ccc12" | System: CCRF-CEM | GI50: 1.7

Reading of GI50 for "CN(c1ccc(Cl)cc1)c1cc[n+](Cc2ccc(-c3ccccc3)cc2)cc1" with CCRF-CEM: 0.3

* * *

In this section, each of the compounds is paired with its reported Ratio.
- Species: Homo sapiens
- measurementDescription: Selectivity index, ratio of Kd for human CKbeta to Kd for human CKalpha1
Would you mind answering with just the numeric figure?

The examples below pair each entry with its known result.
1) CN(c1ccccc1)c1cc[n+](Cc2ccc(-c3ccccc3)cc2)c2cc(Cl)ccc12 108
2) CN(c1ccccc1)c1cc[n+](Cc2ccccc2)c2cc(Cl)ccc12 41
3) Clc1ccc2c(N3CCCCCC3)cc[n+](Cc3ccccc3)c2c1 83

// field: Ratio; key: "Clc1ccc2c(N3CCCCCC3)cc[n+](Cc3ccc(-c4ccccc4)cc3)c2c1.[Br-]" ; value = 171
